Reference source for all entries: PubChem BioAssay (NCATS)

# protocol_summary: qHTS assay for measurement of the activity of small molecule inhibitors on Zika virus induced Caspase-3 activity in human iPSC derived neural progenitor cells (hNPCs) (AID 1224857); note: nearly all actives have a fitted effect of over 65% in size
# assay_context: hNPCs ZIKV-induced caspase-3/7, Caspase-Glo luminescence, 6 h; series mostly up to 45.7 µM
Inconclusive results are not listed. Calls of active or inactive are those of the source. Calls come from the whole dose curve; as a rule, active = well fitted inhibition curve with a large enough effect; inconclusive = small, poorly fitted or top-dose-only effect; inactive = no such curve, though single readings can be large or run the other way. Non-standard residues stand in square brackets, D forms with d. Residues, ends and D or L forms follow the SMILES beside them. *: point of attachment. Sta = CC(C)C[C@H](N)[C@@H](O)CC(=O)O; Isovaleryl = CC(C)CC(=O)*
Your reply should match one of these outcome classes. 1 (active), -1 (inactive)

Nc1nc(N)c(N=O)c(OCC2CCCCC2)n1    -1
CC(C)C[C@H](NC(=O)[C@H](Cc1ccccc1)NC(=O)c1cnccn1)B(O)O    -1
Clc1ccc2c(N3CCN(CCCN4CCN(c5ccnc6cc(Cl)ccc56)CC4)CC3)ccnc2c1    -1
CCCCc1ccc2nc(NC(=O)OC)[nH]c2c1    -1
NCCCCNCCCN    -1

Hi, sorry to bother you, what did the test record for CCC1=C(C)CN(C(=O)NCCc2ccc(S(=O)(=O)NC(=O)NC3CCC(C)CC3)cc2)C1=O (stereo unspecified) ?
-1

Fill in: this test's call for O=C(O)c1cc(=O)c2c(OCC(O)COc3cccc4oc(C(=O)O)cc(=O)c34)cccc2o1 is ___
-1

Any idea what this test logged for O=c1oc2cc(O)ccc2s1 ?
1

// param item: O=P(O)(O)C(O)(Cn1ccnc1)P(=O)(O)O ; yields the recorded call
-1

Short answer needed: outcome of this test for CC(C)[N+]1(C)[C@@H]2CC[C@H]1CC(OC(=O)C(CO)c1ccccc1)C2 (stereo partly specified) ?
-1

I'd appreciate the recorded outcome for CCN(CC)C(=S)SSC(=S)N(CC)CC from this test.
1

Please state the recorded outcome for this compound: N=C(N)c1ccc2cc(OC(=O)c3ccc(N=C(N)N)cc3)ccc2c1
-1

Given CN(C)C(=O)COC(=O)Cc1ccc(OC(=O)c2ccc(N=C(N)N)cc2)cc1 , state the outcome it received in this test.
-1

Assay outcome for NC(=O)Cc1cccc(C(=O)c2ccccc2)c1N : what was it?
-1

Test call, this compound: O=C(NCCO[N+](=O)[O-])c1cccnc1
-1

# lookup: test call for c1ccc2[nH]c(-c3cscn3)nc2c1
1

Dear all, I need the recorded test outcome for CCCCCCCCCCCCCCCCCCCCCCO , thank you.
-1

Query: recorded result category for CC(C)CC(=O)N[C@H](C(=O)N[C@H](C(=O)N[C@@H](CC(C)C)[C@@H](O)CC(=O)N[C@@H](C)C(=O)N[C@@H](CC(C)C)[C@@H](O)CC(=O)O)C(C)C)C(C)C (Isovaleryl-VV[Sta]A[Sta]-OH) in this test
-1

Please indicate how the test categorized O=C(CS(=O)Cc1ccco1)NCC=CCOc1cc(CN2CCCCC2)ccn1 (stereo unspecified) .
-1

// outcome(item) with item = CCN(CC)CCOc1ccc(Nc2ncc3cc(-c4c(Cl)cccc4Cl)c(=O)n(C)c3n2)cc1
-1

Please state the recorded outcome for this compound: CCCCC(CC)COC(=O)C(C#N)=C(c1ccccc1)c1ccccc1 (stereo unspecified)
-1

Assay result, entry O=C(O)c1cn(-c2ccc(F)cc2)c2cc(N3CCNCC3)c(F)cc2c1=O — outcome?
-1

Outcome? NS(=O)(=O)c1cc(C(=O)O)c(NCc2ccco2)cc1Cl
-1

Which outcome was entered for the compound Nc1ccc(S(N)(=O)=O)cc1 in this test?
-1

Status in this test for O=C(CCc1ccc(O)cc1)c1c(O)cc(O)cc1O ?
-1

How was Cc1c(C(=O)NN2CCCCC2)nn(-c2ccc(Cl)cc2Cl)c1-c1ccc(Cl)cc1 classified in this test?
-1

Assay outcome for CC(S)C(=O)NCC(=O)O (stereo unspecified) : what was it?
-1
